Reference for the values: PubChem BioAssay

testedOn: Guanine nucleotide-binding protein G(o) subunit alpha (Homo sapiens) (UniProt P09471)
Sequence (P09471 whole entry, looked up): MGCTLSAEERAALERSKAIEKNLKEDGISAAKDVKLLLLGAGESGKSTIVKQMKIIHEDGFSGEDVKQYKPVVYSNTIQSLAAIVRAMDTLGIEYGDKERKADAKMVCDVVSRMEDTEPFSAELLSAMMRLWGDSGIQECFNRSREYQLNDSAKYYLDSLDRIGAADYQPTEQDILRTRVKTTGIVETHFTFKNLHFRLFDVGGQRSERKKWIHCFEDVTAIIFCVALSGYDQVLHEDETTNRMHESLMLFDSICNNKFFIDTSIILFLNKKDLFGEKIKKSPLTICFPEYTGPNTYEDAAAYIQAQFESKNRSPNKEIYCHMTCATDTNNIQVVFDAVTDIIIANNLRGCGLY
assayMethodText: retest of RGS8-Galphao interaction hits – biochemical, multiplexed bead flow cytometry, single concentration, confirmation (AID 1836);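 note: Galphao activated as GDP AlF4 complex before binding bead RGS8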
conditionInfo: bead-based flow cytometry RGS8-Galphao binding, fluorescence; at 10 µM; actives lie on both sides
The other results are listed elsewhere or left out.
readoutLabel: binding response (% of control) (%)
Number in %, nothing else.

[ask] Lab note: need binding response (% of control) for "Cc1cc(=O)n2[nH]c(-c3sccc3-n3c(C)ccc3C)cc2n1" on Guanine nucleotide-binding protein G(o) subunit alpha (Homo sapiens) (UniProt P09471), anyone have it?
[reply] 103

[ask] Likewise for Cc1cc(C)n(CC(O)CN(c2ccccc2)S(=O)(=O)c2ccc3ccccc3c2)n1 (stereo not given) ?
[reply] 101

[ask] Likewise for "COc1ccc(-n2c(SCC(=O)OC(C)C)nnc2-c2ccccn2)cc1" ?
[reply] 99.1

[ask] Likewise for "Cc1ccccc1CS(=O)(=O)CC1(O)CCN(C(=O)c2cccc(C(F)(F)F)c2)CC1" ?
[reply] 104

[ask] Likewise for "CCN(CC)CCn1cnc2c1c(=O)n(CCOC(=O)c1cc(OC)c(OC)c(OC)c1)c(=O)n2C" ?
[reply] 104

###

assayMethodText: TOR pathway LAP4-GFP level changes – S. cerevisiae, multiplex flow cytometry, primary screen (AID 1873)
conditionInfo: S. cerevisiae LAP4-GFP expression, 3 h, at 10 µM, hits give high values
Results filed as inconclusive are left out.
Listing of entries alongside the reported GFP response vs DMSO.
Number in %, nothing else.

# count of solved cases: 3
{"molecule": "Cc1ccc(/C=N/NC(=O)C2(C)CC2(Br)Br)cc1 (stereo unspecified)", "GFP response vs DMSO (%)": 130}
{"molecule": "COc1ccc2oc(C)c(C(N)=O)c2c1", "GFP response vs DMSO (%)": 118}
{"molecule": "O=C1CC[C@@H](CN(Cc2ccccc2)Cc2cn[nH]c2-c2cc3ccccc3o2)N1", "GFP response vs DMSO (%)": 110}

[ask] Quick one: GFP response vs DMSO for "O=C(c1ccco1)N1CCCN(Cc2nc(-c3ccc4c(c3)OCO4)no2)CC1" ?
[reply] 98.6

[ask] Likewise for C/C(=N\NC(=O)C1(C)CC1(Br)Br)c1ccc([N+](=O)[O-])cc1 (stereo unspecified) ?
[reply] 85.5

[ask] Likewise for "COc1cccc(=O)c2c(C)n(CC(=O)c3ccccc3)c(C)c12" ?
[reply] 113

[ask] Likewise for "N/C(Cc1ccc(Cl)cc1Cl)=N\OC(=O)c1ccc(Br)o1" ?
[reply] 167

[ask] Likewise for "CCOC(=O)C(=Cc1ccccc1OC)C(=O)OCC" ?
[reply] 132

###

testedOn: GTPase HRas (Homo sapiens)
assayMethodText: blockade of GTP loading onto mutant Ras – biochemical, activated mutant, multiplex bead flow cytometry, dose response (AID 1341);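 note: GST-tagged constitutively activated Ras mutant immobilized on beads and multiplexed with other GTPases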
conditionInfo: bead-based flow cytometry, Bodipy-FL-GTP binding; series mostly up to 100 µM
Entries with a potency or affinity are not part of this list. The source made the active and inactive calls.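 How the source made its calls: active means dose-response curve with midpoint inside the tested range, moderate steepness, significant amplitude and little compound fluorescence or bead-attachment interference; inactive means the rest.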
readoutLabel: outcome

# count of solved cases: 5
{"compound": "Cc1cccc(CCSc2ncccc2C(=O)O)c1", "outcome": "inactive"}
{"compound": "O=C(O)C1(NCc2ccccc2Cl)CCCCC1", "outcome": "inactive"}
{"compound": "COc1ccc(C(=O)N/C(=C\\c2cccc([N+](=O)[O-])c2)C(=O)Nc2cccc(C(=O)O)c2)cc1", "outcome": "inactive"}
{"compound": "O=C(O)CC/C(=C\\c1ccc(N2CCOCC2)c([N+](=O)[O-])c1)c1nc2ccccc2s1", "outcome": "inactive"}
{"compound": "O=C(O)c1cn(CCOc2ccccc2)c2ccccc12", "outcome": "inactive"}

[ask] Quick one: outcome for "O=C(O)c1cc(-c2ccc(/C=C3/SC(=S)N(Cc4ccccc4)C3=O)o2)ccc1Cl" ?
[reply] inactive

[ask] Likewise for "O=C(O)c1ccccc1Oc1ccccc1" ?
[reply] inactive

[ask] Likewise for "CN1CCN(S(=O)(=O)c2cccc(C(=O)Nc3sc4c(c3C(N)=O)CCCC4)c2)CC1" ?
[reply] inactive

[ask] Likewise for "COc1cc2[nH]c(=S)nc(NCc3ccccn3)c2cc1OC" ?
[reply] inactive

[ask] Likewise for "CCCOc1ccc(OCCSc2nc3ccccc3n2CC(=O)O)cc1" ?
[reply] inactive

###

testedOn: ATP-binding cassette sub-family B member 6 (Homo sapiens)
assayMethodText: blockers of ABCB6-driven porphyrin uptake – K562-ABCB6 cells, flow cytometry, validation set, pilot screen (AID 588550);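 note: 0% = DMSO wells and 100% = benzethonium chloride 70 µM positive control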
conditionInfo: K562-ABCB6 porphyrin accumulation, 1 h, at 10 µM, hits give high values
readoutLabel: inhibition (%)
Number in %, nothing else.

# count of solved cases: 3
{"compound": "CS(=O)(=O)Nc1cccc(C(=O)CC2(O)C(=O)Nc3ccc(Br)cc32)c1 (stereo not given)", "inhibition / %": 7}
{"compound": "CC(=O)OCC(=O)[C@@]1(O)[C@H](C)C[C@H]2[C@@H]3CCC4=CC(=O)C=C[C@]4(C)[C@@]3(F)[C@@H](O)C[C@@]21C", "inhibition / %": 9}
{"compound": "Cc1cccc(-c2ncc(CN3CCN(CC(C)C)C(CCO)C3)cn2)c1 (stereo not given)", "inhibition / %": 15}

[ask] Quick one: inhibition for "Cc1ccc(C(=O)COC(=O)c2cccc(N3C(=O)c4c(C)nc5ccccc5c4C3=O)c2)cc1C" ?
[reply] 2

###

testedOn: AP-2 complex subunit beta (Homo sapiens)
assayMethodText: beta-arrestin/AP2 interaction blockers – biochemical, validation set, GST-AP2 beads, flow cytometry, pilot screen (AID 504541);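 note: AP2 carries R879A mutation and is captured from E. coli lysate; bead-bound FITC arrestin peptide fluorescence measuring arrestin peptide binding to AP2; 0% = DMSO wells and 100% = excess unlabeled arrestin peptide control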
conditionInfo: FITC arrestin peptide, at 10 µM, hits give high values, AP2 beta2 appendage fragment, R879A mutant
Listing of entries alongside the reported inhibition.
Number in %, nothing else.

# count of solved cases: 5
{"compound": "CSc1cccc(NC(=O)/C=C/c2ccccc2)c1", "outputUnit": "%", "inhibition": 7.39}
{"compound": "O=C(NC1CCCCC1)N1CCc2[nH]c3ccccc3c2C1", "outputUnit": "%", "inhibition": 12.6}
{"compound": "CC1(CC(=O)Nc2ccccc2)NC(=S)N(c2ccccc2)N1 (centres undefined)", "outputUnit": "%", "inhibition": -4.29}
{"compound": "O=C(O)CCCN1C(=O)NC2NC(=O)NC21 (centres undefined)", "outputUnit": "%", "inhibition": 35.1}
{"compound": "COc1ccccc1C(O)c1nccn1C (centres undefined)", "outputUnit": "%", "inhibition": 0.35}

[ask] Quick one: inhibition for CC(C)CCC1(CCNC(C)c2cccs2)CCOC(C)(C)C1 (centres undefined) ?
[reply] 1.09

[ask] Likewise for "CSCC[C@H](NC(=O)Nc1ccc(C)cc1C)C(=O)O" ?
[reply] 6.83

[ask] Likewise for "c1ccc(CC2=NCCN2)cc1" ?
[reply] -16.6

[ask] Likewise for CC(C)=CC/C=C1\CCC(C(=O)O)C(C(=O)O)C1 (centres undefined) ?
[reply] -6.38

[ask] Likewise for Cc1ccc(S(=O)(=O)N2CCC(C(=O)N[C@@H](C)C(=O)NC3CCS(=O)(=O)C3)CC2)cc1 (some centres undefined) ?
[reply] -5.24

[ask] Likewise for O=C1C(O)CC2c3ccccc3CC3(CCCC3)N12 (centres undefined) ?
[reply] -6.78

[ask] Likewise for "CC(C)c1ccc(OCc2ccc(C(=O)O)o2)cc1" ?
[reply] 2.53

[ask] Likewise for CCc1cccc2c3c([nH]c12)C(CC)(CC(=O)O)OCC3 (centres undefined) ?
[reply] -11.4

[ask] Likewise for "Clc1ccc2c(c1)[C@H]1OCC[C@H]1[C@@H](c1ccco1)N2" ?
[reply] 3.61

[ask] Likewise for COc1ccc(C2C(C(=O)c3ccco3)=C(O)C(=O)N2CC2CCCO2)cc1 (centres undefined) ?
[reply] 25.3

[ask] Likewise for "COc1ccc(CCNC(=O)c2ccc(Cl)cc2)cc1OC" ?
[reply] -0.98

[ask] Likewise for "C[C@]12CC[C@@H]3c4ccc(O)cc4C(=O)C[C@H]3[C@@H]1CC[C@@H]2O" ?
[reply] 44.1

[ask] Likewise for Fc1ccccc1CNCCC(Cc1ccccc1)c1ccc2c(c1)OCO2 (centres undefined) ?
[reply] 11.7

[ask] Likewise for OC(CCN1CCCC1)(c1ccccc1)C1CCCCC1 (centres undefined) ?
[reply] 34.9

[ask] Likewise for "CCC(=O)Oc1ccc(C(=O)Nc2ccc([N+](=O)[O-])cc2)cc1" ?
[reply] 15.9

[ask] Likewise for "COc1ccccc1NC(=O)Cn1c(C)cc(=O)c2cccc(OC)c21" ?
[reply] -11.8

[ask] Likewise for "CCCCOc1ccc(CC(=O)NO)cc1" ?
[reply] 3.29

[ask] Likewise for "CC(C)(C)c1ccc(/C=C/C(=O)N2CCCCC2)cc1" ?
[reply] 3.48

[ask] Likewise for "COC(=O)c1sccc1NC(=O)Nc1ccccc1F" ?
[reply] -3.3

[ask] Likewise for "CCc1cc(=O)oc2cc3occ(-c4ccc(OC)c(F)c4)c3cc12" ?
[reply] 6.17
